Listing of recorded SPR Response Units by entry.
tgt: GST-human KRas166 (G12V) GPPNHP (Homo sapiens, UniProt P01116, G12V)
Construct: made in house; host or cells: E. coli C41(DE3)
measurementNotes: KRas small-molecule screening by SPR (Biacore T200)
Type: binding
experimentalSetup: compound 100 uM, 5% DMSO buffer; immobilised GST-KRas166 (G12V) GPPNHP

{"molecule": "COc1nc(-c2cccc3c2OC(CNC(=O)C2CCOCC2)CO3)ccc1Nc1ccc(CNCC2COCCN2)cc1 (stereo not shown) [Example 127]", "displayUnit": "Response Units", "SPR Response Units": 205}
{"molecule": "c1cc2c(c(-c3cnc(Nc4ccc(CNCC5COCCN5)cc4)cn3)c1)OCCO2 (stereo not shown) [Example 155]", "displayUnit": "Response Units", "SPR Response Units": 71}
{"molecule": "COc1cccc(-c2cccc3c2O[C@H](CNC(=O)c2ccc(CN4CCN(C)CC4)o2)CO3)n1 [Example 51]", "displayUnit": "Response Units", "SPR Response Units": 32}
{"molecule": "COc1nc(-c2cccc3c2OCCO3)ccc1Nc1ccc(CC(=O)NCC2CCN(C)CC2)cc1 [Example 197]", "displayUnit": "Response Units", "SPR Response Units": 453}
